Measured values drawn from patent US20260347449 for this set.

- Target Or System: human C5 (human, UniProt P01031)
- Protocol Details: BLI
Reported Metric: pKd
Keep in mind that pKd stands for -log10 of concentration in molar terms.

C5S8 (antibody, V domains shown) VH: QVQLQESGGGLVQAGGSLRLSCAASGNIFDEWDMGWYRQAPGKEREFVAAIDDGASTYYADSVKGRFTISRDNAKNTVYLQMNSLKPEDTAVYYCAARQTYAWDYRYWGQGTQVTVSS
8.15
C5S5 (antibody, V domains shown) VH: QVQLQESGGGLVQAGGSLRLSCAASGTISPYEGMGWYRQAPGKERELVAAIDGGGITYYADSVKGRFTISRDNAKNTVYLQMNSLKPEDTAVYYCAAGIWTLSYYDYWGQGTQVTVSS
7.89

Kindly note the recorded pKd for C5S1 (antibody, V domains shown) VH: QVQLQESGGGLVQAGGSLRLSCAASGYISYDDDMGWYRQAPGKEREFVAAIDVGGSTYYADSVKGRFTISRDNAKNTVYLQMNSLKPEDTAVYYCAVRDGYYWDHDYWGQGTQVTVSS , which is 8.02

Kindly note the recorded pKd for C5S2 (antibody, V domains shown) VH: QVQLQESGGGLVQAGGSLRLSCAASGNIFHQSDMGWYRQAPGKEREFVAAIDYGTNTYYADSVKGRFTISRDNAKNTVYLQMNSLKPEDTAVYYCAARDTSYWDHVYWGQGTQVTVSS , which is 8.70
